These measurements were taken from PubChem BioAssay (NCI).

- Test system: SN12C renal
- testMethodNotes: NCI tumour cell line growth inhibition, 48 h
TRUE means recorded TGI is 40 µM or above; FALSE means it is below 40 µM.

compound: O=C(N/N=C/c1cc(Cl)cc(Cl)c1[OH2+])c1ccncc1.O=S(=O)([O-])[O-].[Fe+2]
testedSystem: SN12C renal
category: TRUE
--
compound: O=C(Nc1cccc(-n2ccc3c(NC(=O)c4ccccc4)nccc32)c1)c1ccc(Cl)c(Cl)c1
testedSystem: SN12C renal
category: FALSE
--
compound: CC(C)c1ccc(C(c2c(O)c3ccccc3oc2=O)c2c(O)c3ccccc3oc2=O)cc1
testedSystem: SN12C renal
category: TRUE
--
compound: CC[C@@]1(O)C(=O)OCc2c1cc1n(c2=O)Cc2cc3cccc(N)c3nc2-1
testedSystem: SN12C renal
category: TRUE
--
compound: O=C(O)c1ccc(Nc2nc3ccc(C(F)(F)F)cc3nc2C(=O)O)cc1
testedSystem: SN12C renal
category: TRUE
--
compound: CCN(CC)CCCNc1nccc2c(C)c3[nH]c4ccncc4c(=O)c3cc12
testedSystem: SN12C renal
category: FALSE
--
compound: CC(C)(C)C1CCC2c3c([nH]c4ccccc34)C3C(=O)N(c4cc(Cl)ccc4Cl)C(=O)C3C2C1 (stereo unspecified)
testedSystem: SN12C renal
category: TRUE
--
compound: Cc1cc(=O)n2c(cc3cccccc32)n1
testedSystem: SN12C renal
category: TRUE
--
compound: CCc1nc(N)nc(N)c1-c1ccc(N(C)Cc2ccccc2)c([N+](=O)[O-])c1
testedSystem: SN12C renal
category: TRUE
--
compound: CC(/C=C1\CCC(CN(C)C)C1=O)c1cccc(Br)c1 (stereo unspecified)
testedSystem: SN12C renal
category: TRUE
--
compound: c1cc2cc(Cc3ccc4[nH]ccc4c3)ccc2[nH]1
testedSystem: SN12C renal
category: FALSE
--
compound: CCCCCCCCC1C(C)c2c([nH]c3ccccc23)C2C(=O)N(c3ccccc3)C(=O)C21 (stereo unspecified)
testedSystem: SN12C renal
category: FALSE
--
compound: O=C(N/N=C\c1ccc(Cl)cc1)Nc1cccc2ccccc12
testedSystem: SN12C renal
category: TRUE
--
compound: N#C/C(=C\c1ccccc1F)C(=O)c1ccccc1
testedSystem: SN12C renal
category: TRUE
--
compound: Cl.[O-]c1cccc2cccnc12.[O-]c1cccc2cccnc12.[O-]c1cccc2cccnc12.[O-]c1cccc2cccnc12.[Ti+4]
testedSystem: SN12C renal
category: TRUE
--
compound: COc1cc(C2SCC(=O)N2c2ccc(Cl)cc2)cc(OC)c1OC (stereo unspecified)
testedSystem: SN12C renal
category: TRUE
--
compound: CC(Cn1c(=O)oc2ccccc21)N(C)C (stereo unspecified)
testedSystem: SN12C renal
category: TRUE
--
compound: O=C1/C=C/[C@@H](O)[C@@H]2C[C@@H](O)C[C@H]2/C=C/CCC[C@H](CCc2ccc(NC(=S)Nc3ccc4c(c3)C(=O)OC43c4ccc(O)cc4Oc4cc(O)ccc43)cc2)O1
testedSystem: SN12C renal
category: TRUE
--
compound: NCCCC(N)(C(=O)O)C(F)F (stereo unspecified)
testedSystem: SN12C renal
category: TRUE
--
compound: COc1ccc(C(=O)Nc2ccn(CCOC(=O)c3ccc(OC)cc3)c(=O)n2)cc1
testedSystem: SN12C renal
category: TRUE
--
compound: Cc1cc(C(=O)CC(Cl)=C(Cl)Cl)c(Cl)cc1Cl
testedSystem: SN12C renal
category: TRUE

----------
- Tested on: SNB-75 CNS
- testMethodNotes: NCI tumour cell line growth inhibition, 48 h
TGI listing for selected compounds.

compound: CC(=O)c1sc2c(c1OC(=O)c1ccccc1)c(=O)n(-c1ccccc1)c(=S)n2-c1ccccc1
testedSystem: SNB-75 CNS
inequalityOperator: =
TGI (µM): 28.6

compound: COC(=O)/C(=N\Nc1nc(=S)[nH]n1N)C(C#N)c1ccc(Cl)cc1 (centres undefined)
testedSystem: SNB-75 CNS
inequalityOperator: >
TGI (µM): 100

compound: CCOC(=O)c1cc(C2CCN(Cc3ccccc3)C2=O)c(C(=O)/C=C(/C)N)[nH]1 (centres undefined)
testedSystem: SNB-75 CNS
inequalityOperator: >
TGI (µM): 100

compound: Cc1cnc2c(c1)C(=O)N(c1ccc(Br)cc1)S2(=O)=O
testedSystem: SNB-75 CNS
inequalityOperator: >
TGI (µM): 100

compound: CC1=C(C(=O)NNC(=O)c2ccccc2O)CC(C(=O)NNC(=O)c2ccccc2O)=C(C)N1
testedSystem: SNB-75 CNS
inequalityOperator: >
TGI (µM): 100

compound: C=C(C)C1CC=C(C)C(O)([C@@]2(O)C[C@H](C(=C)C)CC=C2C)C1 (some centres undefined)
testedSystem: SNB-75 CNS
inequalityOperator: =
TGI (µM): 54.2

compound: CCN(CC)CCCNc1nccc2c(C)c3[nH]c4ccncc4c(=O)c3cc12
testedSystem: SNB-75 CNS
inequalityOperator: =
TGI (µM): 12.6

compound: Cc1nccc2c3ccc(OCc4cn(-c5ccc(Br)cc5)nn4)cc3n(CCCc3ccccc3)c12
testedSystem: SNB-75 CNS
inequalityOperator: =
TGI (µM): 3.98

compound: Cn1cc(-c2csc(-c3cn(CCCN4CCCCC4)c4ccc(Br)cc34)n2)c2cccnc21
testedSystem: SNB-75 CNS
inequalityOperator: =
TGI (µM): 5.8

----------
// values below are reported GI50
- System: SR leukemia
- testMethodNotes: NCI tumour cell line growth inhibition, 48 h
metric: GI50

entrySmiles: C#Cc1cccc(Nc2ncnc3ccc(-c4cnc(N)nc4)cc23)c1
result: 2580 nM

entrySmiles: O=C(CCN1CCCC1)Nc1ccc2c(Nc3ccc(Br)cc3)c3ccccc3nc2c1
result: 288 nM

entrySmiles: CN(CO)c1nc(N(C)CO)nc(N(C)CO)n1
result: 28400 nM

entrySmiles: O=C1c2c(c3c4ccccc4n(CCCCCCN4CCOCC4)c3c3[nH]c4ccccc4c23)C(=O)N1O
result: 291 nM

entrySmiles: CN(C)c1ccc(/C=N/n2c(CCCCc3n[nH]c(=S)n3/N=C/c3ccc(N(C)C)cc3)n[nH]c2=S)cc1
result: > 100000 nM

entrySmiles: CCCCCCCCCCCCSC1=CC(=O)C=CC1=O
result: 3580 nM

entrySmiles: CC[C@@]1(O)C(=O)OCc2c1cc1n(c2=O)Cc2cc3cccc(N)c3nc2-1
result: 478 nM

----------
Listed molecules paired with reported TGI
- Test system: NCI-H23 lung
- testMethodNotes: NCI tumour cell line growth inhibition, 48 h

molecule: CCOC(OCC)[C@@H]1C[C@@H]2N(O[C@H](OC3CCCC3(c3ccccc3)c3ccccc3)[C@H](OC(C)=O)[C@@]2(CC)Cc2ccc(OC)c(OC)c2)O1 (stereo not given in full)
TGI: > 100 µM
--
molecule: CCC/C=C/C=C\C(=O)O[C@@H]1[C@@H](C)[C@]2(O)[C@@H]3C=C(C)C(=O)[C@H]3CC(COC(C)=O)=C[C@H]2[C@@H]2C(C)(C)[C@]12OC(C)=O
TGI: 98.6 µM
--
molecule: CC(Cn1c(=O)oc2ccccc21)N(C)C (stereo not given)
TGI: > 100 µM
--
molecule: CN(C)C1(N(C)C)Oc2c(c(=O)n(C)c(=O)n2C)C(c2ccc(F)cc2)C1(F)F (stereo not given)
TGI: > 100 µM
--
molecule: COc1cccc(C2c3cc4c(cc3OC(NNC(N)=O)C2C)OCO4)c1OC (stereo not given)
TGI: 77.8 µM
--
molecule: CC1=C(N2CC2)C(=O)C(C)=C(N2CC2)C1=O
TGI: 0.19 µM
--
molecule: COc1cc2c(cc1OC)-c1cc3cc(OC)c(OC)cc3c(C)[n+]1CC2 (tested in a mixture with another compound)
TGI: > 100 µM
--
molecule: CSc1c(S(C)=O)c2ccccc2n1C (stereo not given)
TGI: > 100 µM
--
molecule: Cc1cnc2c(c1)C(=O)N(c1ccc(Br)cc1)S2(=O)=O
TGI: > 100 µM
--
molecule: CC(=O)OC1CC2C(=O)CC1(C)C2(C)C (stereo not given)
TGI: > 100 µM

----------
Below is a list of entries, each paired with its recorded GI50 value.
- Test system: MDA-MB-435
- testMethodNotes: NCI tumour cell line growth inhibition, 48 h

compound: C=C1C(=O)O[C@H]2[C@H]1CC/C(CNC(=O)C(C)c1ccc(CC(C)C)cc1)=C\CC[C@@]1(C)O[C@@H]21 (some centres not stated)
testedSystem: MDA-MB-435
GI50: 1.72 µM
--
compound: N#Cc1ccc(C(=O)c2cnn(-c3ccc(F)cc3)c2N)cc1
testedSystem: MDA-MB-435
GI50: > 25 µM
--
compound: Cc1c(C(=O)/C=C/c2ccc(Cl)cc2)nnn1-c1ccnc2c(C(F)(F)F)cccc12
testedSystem: MDA-MB-435
GI50: > 100 µM
--
compound: Cc1cc2oc(=O)cc(OC/C=C3/CCC(=O)O3)c2cc1C
testedSystem: MDA-MB-435
GI50: 4.64 µM
--
compound: Cc1cc(C(=O)CC(Cl)=C(Cl)Cl)c(Cl)cc1Cl
testedSystem: MDA-MB-435
GI50: 17.1 µM
--
compound: COc1ccc(-c2nsc3c2NC(=O)CC3c2cccc(F)c2)cc1 (configuration not stated)
testedSystem: MDA-MB-435
GI50: 0.827 µM
--
compound: COc1ccc(Cl)cc1Nc1nc(C(F)(F)F)ccc1C(=O)N/N=C/c1ccccc1Cl
testedSystem: MDA-MB-435
GI50: 2.61 µM
